test: TOX21_p53_BLA_p4_viability: Viability Assessment in the Tox21 HCT-116 p53 Agonism Beta-lactamase Assay, Phase 4 (AID 2283597);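 note: hits lower the luminescence signal meaning cytotoxicity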
Records with an inconclusive call do not appear. The source made the active and inactive calls. Rule for the calls: active = hit-call score of the fitted dose curve at least 0.9, where 1 is the maximum; inconclusive = response in the unintended direction; inactive = score below 0.9.
Returns: one label drawn from YES (active), NO (inactive)

O=C(O)c1nc(Cl)ccc1Cl ... NO
CCc1nn(C)c(C(=O)NCc2ccc(C(C)(C)C)cc2)c1Cl ... YES

Now consider the entry below.
What did this assay record as the result for CCOc1cc(Oc2ccc(C(F)(F)F)cc2Cl)ccc1[N+](=O)[O-] ?
NO

###

experiment: BSK_SAg_SRB: Viability Assessment in the BioMAP Diversity Plus: SAg Assay (AID 2283096); conditions: primary human HUVEC with PBMC;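 note: cells read one day after compound addition; hits may be either gain or loss of signal compared with DMSO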
The source made the active and inactive calls. Rule for the calls: active = hit-call score of the fitted dose curve at least 0.9, where 1 is the maximum; inactive = score below 0.9.
Returns: one label drawn from True for active, False for inactive

Look over these answered cases.
CCCC1COC(Cn2cncn2)(c2ccc(Cl)cc2Cl)O1 (stereo unspecified) ... False
COc1nc(NC(C)C)nc(NC(C)C)n1 ... False

What did this assay record as the result for CCOc1cc(Oc2ccc(C(F)(F)F)cc2Cl)ccc1[N+](=O)[O-] ?
True

What did this assay record as the result for CC(C)C1(C)N=C(c2nc3ccccc3cc2C(=O)O)NC1=O (stereo unspecified) ?
False

What did this assay record as the result for CC1COC(Cn2cncn2)(c2ccc(Oc3ccc(Cl)cc3)cc2Cl)O1 (stereo unspecified) ?
True

###

read-out: Monokine induced gamma interferon (MIG), CXCL9 (gene 4283); experiment: BSK_3C_MIG: BioMAP Diversity Plus: 3C Assay for Monokine induced gamma interferon (MIG) Biomarker Activity (AID 2283021); settings: primary human endothelial cells (HUVEC); actives raise or lower the signal
Active and inactive are the calls of the source. The calls were made as follows: active = hit-call score of the fitted dose curve at least 0.9, where 1 is the maximum; inactive = score below 0.9.
Returns: one label drawn from yes (1) for active, no (0) for inactive

Look over these answered cases.
CON(C)C(=O)Nc1ccc(Cl)c(Cl)c1 ... no (0)
CN(C)C(=S)SSC(=S)N(C)C ... yes (1)
COc1nc(C)nc(NC(=O)NS(=O)(=O)c2ccccc2CCC(F)(F)F)n1 ... no (0)
CNC(=O)ON=CC(C)(C)SC ... no (0)

What did this assay record as the result for O=C(O)c1nc(Cl)ccc1Cl ?
no (0)

What did this assay record as the result for N#Cc1cc(Br)c(O)c(Br)c1 ?
no (0)

What did this assay record as the result for COP(N)(=O)SC (stereo unspecified) ?
no (0)

What did this assay record as the result for COP(=S)(OC)Oc1nc(Cl)c(Cl)cc1Cl ?
no (0)

What did this assay record as the result for CC(Oc1ccc(Cl)cc1Cl)C(=O)O (stereo unspecified) ?
no (0)

What did this assay record as the result for COc1cnc(OC)n2nc(NS(=O)(=O)c3c(OCC(F)F)cccc3C(F)(F)F)nc12 ?
no (0)

What did this assay record as the result for N#Cc1nn(-c2c(Cl)cc(C(F)(F)F)cc2Cl)c(N)c1S(=O)C(F)(F)F (stereo unspecified) ?
no (0)

###

tested on: Thyroperoxidase (TPO), gene 54314; assay: CCTE_Simmons_AUR_rTPO: CCTE's Amplex UltraRed Assay for Thyroperoxidase (TPO) Inhibition, Simmons Lab (AID 2283662);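 for AC50: potency for loss of signal meaning inhibition of peroxidase activity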
Calls of active or inactive are those of the source. How the source made its calls: active means hit-call score of the fitted dose curve at least 0.9, where 1 is the maximum; inconclusive means response in the unintended direction; inactive means score below 0.9.
property: AC50

CC1COC(Cn2cncn2)(c2ccc(Oc3ccc(Cl)cc3)cc2Cl)O1 (configuration not stated) ... inactive
CON(C)C(=O)Nc1ccc(Cl)c(Cl)c1 ... 35 µM (active)
CCCCNC(=O)n1c(NC(=O)OC)nc2ccccc21 ... inactive
C=CCC1=C(C)C(OC(=O)C2C(C=C(C)C)C2(C)C)CC1=O (configuration not stated) ... 33.6 µM (active)
C=CCC1=C(C)[C@@H](OC(=O)[C@@H]2[C@@H](C=C(C)C)C2(C)C)CC1=O ... 54 µM (active)

Give AC50 for each of the items listed below.
1. COC(=O)C=C(C)OP(=O)(OC)OC
2. COP(N)(=O)SC (configuration not stated)
3. CCCN(CCC)c1c([N+](=O)[O-])cc(S(N)(=O)=O)cc1[N+](=O)[O-]
4. CCOC(=O)CC(SP(=S)(OC)OC)C(=O)OCC (configuration not stated)
5. COP(=S)(OC)Oc1nc(Cl)c(Cl)cc1Cl

14 µM (active)
30.6 µM (active)
inactive
3.4 µM (active)
4.62 µM (active)

Give AC50 for each of the items listed below.
1. O=C(O)c1nc(Cl)ccc1Cl
2. O=C(Nc1ccccc1)Nc1ccnc(Cl)c1

inactive
27.6 µM (active)
